# assay.notes: Solubility of the starting material (compound A crystal form I) in different solvents
# Type: physicochemical
# condition.context: ethyl acetate, organic solvent or mixture, thermodynamic from solid, Ethyl acetate; read-out: Solubility
quantity.kind: Solubility

Sample [2H]C([2H])([2H])n1nc2c(c1C#N)-c1cnc(N)c(c1)O[C@H](C)c1cc(F)ccc1C(=O)N(C)C2 [compound A crystal form I] ; Solubility observed: > 100 mg/mL

====

# assay.notes: Solubility of the starting material (compound A crystal form I) in different solvents
# Format: physicochemical
# condition.context: ethanol, organic solvent or mixture, thermodynamic from solid, Ethanol; read-out: Solubility
quantity.kind: Solubility

Sample [2H]C([2H])([2H])n1nc2c(c1C#N)-c1cnc(N)c(c1)O[C@H](C)c1cc(F)ccc1C(=O)N(C)C2 [compound A crystal form I] ; Solubility observed: ~20 mg/mL

====

# assay.notes: Solubility and stability of the free base and crystalline salts in water, SGF, FaSSIF and FeSSIF
# Assay type: physicochemical
# condition.context: FeSSIF (simulated intestinal fluid in fed state), 37 °C, fessif, thermodynamic from solid, sample 10 mg/ml
quantity.kind: solubility at 24 h (µg/mL)
Write it as a number; the unit µg/mL goes unstated.

Sample [2H]C([2H])([2H])n1nc2c(c1C#N)-c1cnc(N)c(c1)O[C@H](C)c1cc(F)ccc1C(=O)N(C)C2 [compound A crystal form I] ; solubility at 24 h observed: 380

====

# assay.notes: Solubility and stability of the free base and crystalline salts in water, SGF, FaSSIF and FeSSIF
# Type: physicochemical
# condition.context: FaSSIF (simulated intestinal fluid in fasted state), fassif, thermodynamic from solid, FaSSIF (simulated intestinal fluid in fasted state); read-out: Solubility
quantity.kind: Solubility

Sample [2H]C([2H])([2H])n1nc2c(c1C#N)-c1cnc(N)c(c1)O[C@H](C)c1cc(F)ccc1C(=O)N(C)C2 [compound A crystal form I] ; Solubility observed: < 3000 µg/mL
